Hey, just so you know, these numbers are from patent US20230143612A1.

- system.under.test: PD-L1 His protein / PD-1 Fc protein (Homo sapiens)
- measurement.description: HTRF Assay (PD-1/PD-L1 interaction)
- condition.parameters: PD-L1 His 6 nM, PD-1 Fc 6 nM
Measured IC50 determines class: low = under 6 nM, mid = from 6 nM up to 70 nM, high = 70 nM and over

[
  {
    "compound": "COc1nc(-c2cccc(-c3cccc(-c4ccc5nc(CNC[C@@H]6CCC(=O)N6)cn5c4)c3Cl)c2Cl)ccc1CNC[C@@H]1CCC(=O)N1",
    "discrete.label": "high"
  }
]

Task: Class for COc1nc(-c2cccc(-c3cccc(-c4cc5c(=O)n(C)c(CNCC6CC(F)(F)C(=O)N6)nn5c4)c3Cl)c2Cl)ccc1CNC[C@@H]1CCC(=O)N1 (mixture of isomers) ?
Result: mid

Task: Exercise: read the entry COc1nc(-c2cccc(-c3cccc(-c4cc5c(=O)n(C)c(CNCC(=O)O)nn5c4)c3Cl)c2Cl)ccc1CNC[C@@H]1CCC(=O)N1 and state which class it falls under.
Result: low

====

- system.under.test: PD-L1 His protein / PD-1 Fc protein (Homo sapiens, UniProt Q9NZQ7)
- Sequence (Q9NZQ7 19-238 limits assumed): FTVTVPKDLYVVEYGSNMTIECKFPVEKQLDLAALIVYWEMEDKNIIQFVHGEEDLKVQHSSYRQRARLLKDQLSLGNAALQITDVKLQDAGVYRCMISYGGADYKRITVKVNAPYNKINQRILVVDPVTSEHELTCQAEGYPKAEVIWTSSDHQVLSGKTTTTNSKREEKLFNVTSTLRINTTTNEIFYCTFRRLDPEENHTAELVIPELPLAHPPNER
- measurement.description: HTRF Assay (PD-1/PD-L1 interaction)
- condition.parameters: PD-L1 His 6 nM, PD-1 Fc 6 nM
Listed compounds paired with reported pIC50
Entry type: numeric. Quantity: pIC50, the -log10 of concentration in molar units.

[
  {
    "compound": "COc1nc(-c2cccc(-c3cccc(-c4cc5c(=O)n(C)c(CN6CC7(C6)CN(C(C)=O)C7)nn5c4)c3Cl)c2Cl)ccc1CNC[C@@H]1CCC(=O)N1",
    "pIC50": 8.00
  },
  {
    "compound": "COc1nc(-c2cccc(-c3cccc(-c4cnc5c(c4)CNCC(=O)N5)c3Cl)c2Cl)ccc1CNC[C@@H]1CCC(=O)N1",
    "pIC50": 10.00
  },
  {
    "compound": "COc1nc(-c2cccc(-c3cccc(-c4ccc5c(n4)CCCC5NC[C@H](C)O)c3Cl)c2Cl)ccc1CNC[C@@H]1CCC(=O)N1 (mixture of isomers)",
    "pIC50": 8.19
  }
]

Task: Report pIC50 under test system PD-L1 His protein / PD-1 Fc protein (Homo sapiens, UniProt Q9NZQ7) for COc1nc(-c2cccc(-c3cccc(-c4nnc5n4CCNC5)c3Cl)c2Cl)ccc1CNC[C@@H]1CCC(=O)N1 .
Result: 6.46

Task: GET pIC50 where system = PD-L1 His protein / PD-1 Fc protein (Homo sapiens, UniProt Q9NZQ7) and item = CCc1nc2cc(-c3cccc(-c4cccc(-c5ccc(CNC[C@@H]6CCC(=O)N6)c(OC)n5)c4Cl)c3Cl)ccn2c(=O)c1CNC[C@@H]1CCC(=O)N1
Result: 6.96

Task: # return pIC50 of CNCCCN(C)Cc1ccc(-c2cccc(-c3cccc(-c4ccn5c(=O)c(CN(C)CCNC)cnc5c4)c3Cl)c2Cl)nc1OC (system: PD-L1 His protein / PD-1 Fc protein (Homo sapiens, UniProt Q9NZQ7))
Result: 7.05

Task: Report its pIC50 with PD-L1 His protein / PD-1 Fc protein (Homo sapiens, UniProt Q9NZQ7) as the test system: COc1nc(-c2cccc(-c3cccc(-c4ccn5c(=O)c(CNCCCO)cnc5c4)c3Cl)c2Cl)ccc1CNC[C@@H]1CCC(=O)N1
Result: 9.52

Task: Answer with pIC50 of COc1nc(-c2cccc(-c3cccc(-c4ccn5c(=O)c(CN6CCC[C@H]6C(=O)O)cnc5c4)c3Cl)c2Cl)ccc1CNC[C@@H]1CCC(=O)N1 measured for PD-L1 His protein / PD-1 Fc protein (Homo sapiens, UniProt Q9NZQ7).
Result: 9.70

Task: // fetch pIC50; item: COc1nc(-c2cccc(-c3cccc(-c4cc(F)c(CNC[C@@H]5CCC(=O)N5)c(OC)n4)c3Cl)c2Cl)ccc1CNC[C@@H]1CCC(=O)N1 ; system: PD-L1 His protein / PD-1 Fc protein (Homo sapiens, UniProt Q9NZQ7)
Result: 7.20

Task: Return reported pIC50 for target or system PD-L1 His protein / PD-1 Fc protein (Homo sapiens, UniProt Q9NZQ7), item COc1nc(-c2cccc(-c3cccc(-c4ccn5c(=O)c(CNC6CNC(=O)C6)cnc5c4)c3Cl)c2Cl)ccc1CNC1CNC(=O)C1 (mixture of isomers) .
Result: 8.82

Task: Param request: pIC50 | system PD-L1 His protein / PD-1 Fc protein (Homo sapiens, UniProt Q9NZQ7) | item COc1nc(-c2cccc(-c3cccc(-c4ccn5c(=O)c(CNCC(F)(F)F)cnc5c4)c3Cl)c2Cl)ccc1CNC[C@@H]1CCC(=O)N1
Result: 9.40

Task: Retrieve pIC50 on PD-L1 His protein / PD-1 Fc protein (Homo sapiens, UniProt Q9NZQ7); query COc1nc(-c2cccc(-c3cccc(-c4ccc5c(Cl)c(CNC[C@@H]6CCC(=O)N6)[nH]c5n4)c3Cl)c2Cl)ccc1CNC[C@@H]1CCC(=O)N1
Result: 7.55
